Item-by-item account of IC50 pHER3 blocking, HRG stimulated MCF7
Molecular target: hHER3 full length (human, UniProt P21860 20-1342)
Assay: cell-based or functional assay
reported-metric: IC50 pHER3 blocking, HRG stimulated MCF7 (M)

binder | reported-metric | unit-string | measured-result
HER3MS00074 (VHH, 18G11 M102E) VHH: EVQLVESGGGLVQPGGSLRLSCAASGTLFKINAMGWYRQAPGKRRELVALITSSDTTDYAESVEGRFTISRDNTWNAVYLQMNSLKPEDTAVYYCHSDHYSMGVPEKRVIEYGQGTLVTVSS | IC50 pHER3 blocking, HRG stimulated MCF7 | M | 6.3e-08
HER3MS00069 (VHH, 18G11 M99L) VHH: EVQLVESGGGLVQPGGSLRLSCAASGTLFKINAMGWYRQAPGKRRELVALITSSDTTDYAESVEGRFTISRDNTWNAVYLQMNSLKPEDTAVYYCHSDHYSLGVPEKRVIMYGQGTLVTVSS | IC50 pHER3 blocking, HRG stimulated MCF7 | M | 5.27e-08
HER3MS00070 (VHH, 18G11 M99I) VHH: EVQLVESGGGLVQPGGSLRLSCAASGTLFKINAMGWYRQAPGKRRELVALITSSDTTDYAESVEGRFTISRDNTWNAVYLQMNSLKPEDTAVYYCHSDHYSIGVPEKRVIMYGQGTLVTVSS | IC50 pHER3 blocking, HRG stimulated MCF7 | M | 3.78e-08
HER3MS00068 (VHH, 18G11 M99G) VHH: EVQLVESGGGLVQPGGSLRLSCAASGTLFKINAMGWYRQAPGKRRELVALITSSDTTDYAESVEGRFTISRDNTWNAVYLQMNSLKPEDTAVYYCHSDHYSGGVPEKRVIMYGQGTLVTVSS | IC50 pHER3 blocking, HRG stimulated MCF7 | M | 8.88e-08
